Tested on: LC-2-ad
Test: relative viability (nuclei count vs DMSO), 5 days (fraction); higher = more cells survive
Conditions: first compound 0.03162 µM
Experimental endpoint: relative viability
Response field accepts a number only; no unit should be typed.

Molecule	Experimental endpoint	Quantitative readout
Cc1cn(-c2cc(NC(=O)c3ccc(C)c(Nc4nccc(-c5cccnc5)n4)c3)cc(C(F)(F)F)c2)cn1 [Nilotinib] + CC(=O)Nc1cccc(-n2c(=O)n(C3CC3)c(=O)c3c(Nc4ccc(I)cc4F)n(C)c(=O)c(C)c32)c1 [Trametinib] (partner 0.02 µM)	relative viability	0.596

We now examine a further molecule.
Query (molecule): Cc1cn(-c2cc(NC(=O)c3ccc(C)c(Nc4nccc(-c5cccnc5)n4)c3)cc(C(F)(F)F)c2)cn1 [Nilotinib] + CC(=O)c1c(C)c2cnc(Nc3ccc(N4CCNCC4)cn3)nc2n(C2CCCC2)c1=O [Palbociclib] (partner 0.5 µM) ; field requested: relative viability 0.466

----------
System: NCI-H2405
Experiment: relative viability (nuclei count vs DMSO), 5 days (fraction); higher = more cells survive
Conditions: first compound 6.325 µM
Experimental endpoint: relative viability
Please give the numeric answer without any surrounding text.

Example entries and their recorded answers appear below.
Molecule	Test target	Quantitative readout
Cc1csc(=NC2CCCCC2)n1/N=C/c1ccc(O)c(O)c1O [MIM1] + Nc1nc2[nH]cc(CCc3ccc(C(=O)N[C@@H](CCC(=O)O)C(=O)O)cc3)c2c(=O)[nH]1 [Pemetrexed] (partner 0.2 µM)	NCI-H2405	0.752
Cc1csc(=NC2CCCCC2)n1/N=C/c1ccc(O)c(O)c1O [MIM1] + CCNC(=O)c1noc(-c2cc(C(C)C)c(O)cc2O)c1-c1ccc(CN2CCOCC2)cc1 [Luminespib] (partner 0.01 µM)	NCI-H2405	0.543
Cc1csc(=NC2CCCCC2)n1/N=C/c1ccc(O)c(O)c1O [MIM1] + CC1(C)CCC(c2ccc(Cl)cc2)=C(CN2CCN(c3ccc(C(=O)NS(=O)(=O)c4ccc(N[C@H](CCN5CCOCC5)CSc5ccccc5)c(S(=O)(=O)C(F)(F)F)c4)cc3)CC2)C1 [Navitoclax] (partner 0.5 µM)	NCI-H2405	0.798

// below: relative viability requested for another molecule
Consider the molecule Cc1csc(=NC2CCCCC2)n1/N=C/c1ccc(O)c(O)c1O [MIM1] + O=C(c1cc(Cc2n[nH]c(=O)c3ccccc23)ccc1F)N1CCN(C(=O)C2CC2)CC1 [Olaparib] (partner 8 µM) and give its measured relative viability. 0.681

----------
Tested on: NCI-H2009
Experiment: relative viability (nuclei count vs DMSO), 5 days (fraction); higher = more cells survive
Conditions: first compound 0.1 µM
# relative viability per record follows
When you answer, write just the number.

Given the molecule Cc1cn(-c2cc(NC(=O)c3ccc(C)c(Nc4nccc(-c5cccnc5)n4)c3)cc(C(F)(F)F)c2)cn1 [Nilotinib] + O=C(c1cc(Cc2n[nH]c(=O)c3ccccc23)ccc1F)N1CCN(C(=O)C2CC2)CC1 [Olaparib] (partner 8 µM) , what is its reported relative viability? 0.9

Item Cc1cn(-c2cc(NC(=O)c3ccc(C)c(Nc4nccc(-c5cccnc5)n4)c3)cc(C(F)(F)F)c2)cn1 [Nilotinib] + CC(=O)c1c(C)c2cnc(Nc3ccc(N4CCNCC4)cn3)nc2n(C2CCCC2)c1=O [Palbociclib] (partner 0.5 µM) has what recorded relative viability? 0.191

Query (molecule): Cc1cn(-c2cc(NC(=O)c3ccc(C)c(Nc4nccc(-c5cccnc5)n4)c3)cc(C(F)(F)F)c2)cn1 [Nilotinib] + CS(=O)(=O)N1CCN(Cc2cc3nc(-c4cccc5[nH]ncc45)nc(N4CCOCC4)c3s2)CC1 [Pictilisib] (partner 1 µM) ; field requested: relative viability 0.187

What does the record list as relative viability for Cc1cn(-c2cc(NC(=O)c3ccc(C)c(Nc4nccc(-c5cccnc5)n4)c3)cc(C(F)(F)F)c2)cn1 [Nilotinib] + Cc1cc(Nc2cc(N3CCN(C)CC3)nc(Sc3ccc(NC(=O)C4CC4)cc3)n2)n[nH]1 [Tozasertib] (partner 0.1 µM) ? 0.383
